B1: glmS ribozyme (parent)
chain: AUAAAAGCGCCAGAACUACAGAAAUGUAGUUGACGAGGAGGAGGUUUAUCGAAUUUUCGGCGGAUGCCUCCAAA

# Variants of: B1
# PROTOCOL SUMMARY: KM; higher = weaker cofactor use; RNA array
# TEST SETTINGS: with glucosamine-6-phosphate

PRIMARY SEQUENCE	KM / mM
AUAAAAGCGCCAGAACUACAGAAAUGUAGUUAACGAGGAGGAGGUUUAUCGAAUUAUCGGCGGAUGCCUCCAAA [G32A U56A]	5.36
AUAAAAGCGCCAGAACUACAGAAAUGUAGUUUACGAGGAGGAGGAUUAUCGAAUUUUCGGCGGAUGCCUCCAAA [G32U U45A]	3.44
AUAAAAGCGCCAGAACUACAGAAAUGUAGCUGACGAGGAGGAGGUUUAUCGAAUUUUCGGCGGAUGCCUUCAAA [U30C C70U]	1.89
